Assay: Solubility of the compound after 24 hrs at pH 7.2
Assay type: physicochemical
Settings: buffer
Measured Endpoint: solubility at 24 h (µg/mL)

P = C=C[C@@H]1C[C@]1(NC(=O)[C@@H]1C[C@@](OC)(c2ccc(-c3cc(C)ccc3OC)nc2)CN1C(=O)[C@@H](NC(=O)OC1CCCC1)C(C)(C)C)C(=O)NS(=O)(=O)C1CC1
Q = C=C[C@@H]1C[C@]1(NC(=O)[C@@H]1C[C@@](OC)(c2ccc(-c3cscn3)cc2)CN1C(=O)[C@@H](NC(=O)OC1CCCC1)C(C)(C)C)C(=O)NS(=O)(=O)C1CC1
R = C=C[C@@H]1C[C@]1(NC(=O)[C@@H]1C[C@@](OC)(c2ccc(-c3ccc(OC)cc3)cc2)CN1C(=O)[C@@H](NC(=O)OC1CCCC1)C(C)(C)C)C(=O)NS(=O)(=O)C1CC1
**Query** Re-order the entries listed above so their solubility at 24 h values fall from first to last. Please respond by ranking the labels in the order requested.
**Result** Q, P, R

* * *

Experiment: Plasma concentration in rat at 5 mg/kg, po after 6 hrs
Assay type: ADME, organism-based
Parameters: dose 5 mg/kg, route oral
Measured Endpoint: concentration at 6 h (nM)
Numeric only. Scale: nM

**Query** Give the measured concentration at 6 h of C=C[C@@H]1C[C@]1(NC(=O)[C@@H]1C[C@@](OC)(c2ccc(-c3ccccc3)cc2)CN1C(=O)[C@@H](NC(=O)OC1CCCC1)C(C)(C)C)C(=O)NS(=O)(=O)C1CC1 .
**Result** 50
